biological target: BCL-XL (Homo sapiens, UniProt Q07817); construct: endogenous in cells; host or cells: MOLT-4; assay: Bcl-xL ELISA degradation in MOLT-4 cells, 6 h; format: cell-based
Sequence (Q07817 whole entry): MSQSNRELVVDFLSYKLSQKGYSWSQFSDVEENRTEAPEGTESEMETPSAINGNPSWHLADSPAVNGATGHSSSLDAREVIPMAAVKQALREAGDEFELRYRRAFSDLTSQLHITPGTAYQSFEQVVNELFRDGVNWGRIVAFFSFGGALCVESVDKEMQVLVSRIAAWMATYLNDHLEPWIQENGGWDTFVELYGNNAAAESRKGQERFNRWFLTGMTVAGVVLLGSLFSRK
QUANTITY_NAME: Dmax

Some entries whose results are on file:
CHEMICAL_STRING: C#Cc1ccc([C@H](C)NC(=O)[C@@H]2C[C@@H](O)CN2C(=O)[C@@H](NC(=O)CCCCCS(=O)(=O)NC(=O)c2nc(N3CCc4cccc(C(=O)Nc5nc6cccnc6s5)c4C3)ccc2-c2cnn(CC3CCCCC3)c2C)C(C)(C)C)c(O)c1
ASSAY_TARGET: BCL-XL (Homo sapiens, UniProt Q07817)
Dmax: > 75%
//
CHEMICAL_STRING: C#Cc1ccc([C@H](CO)NC(=O)[C@@H]2C[C@@H](O)CN2C(=O)[C@@H](NC(=O)CCCCCS(=O)(=O)NC(=O)c2nc(N(C)c3cc(C)c(Nc4nc5ccccc5s4)nn3)ccc2-c2cnn(CC34CC5CC(CC(C5)C3)C4)c2C)C(C)(C)C)cc1
ASSAY_TARGET: BCL-XL (Homo sapiens, UniProt Q07817)
Dmax: > 75%
//
CHEMICAL_STRING: Cc1ncsc1-c1ccc(CNC(=O)[C@@H]2C[C@@H](O)CN2C(=O)[C@@H](NC(=O)C2(F)CC2)C(C)(C)C)c(OCCc2ccc(S(=O)(=O)NC(=O)c3nc(N4CCc5cccc(C(=O)Nc6nc7ccccc7s6)c5C4)ccc3-c3cnn(CC4CCCCC4)c3C)cc2)c1
ASSAY_TARGET: BCL-XL (Homo sapiens, UniProt Q07817)
Dmax: > 75%

Please look at the following molecule next.
Q. Data request, read-out Dmax, for C#Cc1ccc(CNC(=O)[C@@H]2C[C@@H](O)CN2C(=O)[C@@H](NC(=O)CCCCS(=O)(=O)NC(=O)c2nc(N(C)c3cc(C)c(Nc4nc5ccccc5s4)nn3)ccc2-c2cnn(CC3CCCCC3)c2C)C(C)(C)C)cc1
A. 50 to 75%

###

molecular target: BCL-XL (Homo sapiens, UniProt Q07817); construct: endogenous in cells; host or cells: MOLT-4; assay: BCL-XL degradation assay, western blot in MOLT-4 cells, 16 h; format: cell-based; conditions: western blot, MOLT-4 cells, 16 h; read-out: Bcl-xL WB in MOLT-4 degradation 16 h: Average Dmax %
Task for the reader: assign each of the following compounds its reported Dmax.

COMPOUND: Cc1ncsc1-c1ccc([C@H](C)NC(=O)[C@@H]2C[C@@H](O)CN2C(=O)C(c2cc(OC3CCN(CCNC(=O)c4nc(N5CCc6cccc(C(=O)Nc7nc8ccccc8s7)c6C5)ccc4-c4cnn(CC5CCCCC5)c4C)CC3)no2)C(C)C)cc1 (stereo partly shown)
Dmax: 50 to 75%
//
COMPOUND: Cc1ncsc1-c1ccc(CNC(=O)[C@@H]2C[C@@H](O)CN2C(=O)[C@@H](NC(=O)C2(F)CC2)C(C)(C)C)c(OCCN2CCN(CC[C@H](CSc3ccccc3)Nc3ccc(S(=O)(=O)NC(=O)c4ccc(N5CCN(CC6=C(c7ccc(Cl)cc7)CCC(C)(C)C6)CC5)cc4)cc3S(=O)(=O)C(F)(F)F)CC2)c1
Dmax: > 75%
//
COMPOUND: Cc1ncsc1-c1ccc([C@H](C)NC(=O)[C@@H]2C[C@@H](O)CN2C(=O)[C@@H](NC(=O)CCCC(=O)N(C)CCN(C)c2cc3c(c(C(=O)Nc4nc5ccccc5s4)c2)CN(c2ccc(-c4cnn(CC5CCCCC5)c4C)c(C(=O)O)n2)CC3)C(C)(C)C)cc1
Dmax: < 50%

Q. Please report the recorded Dmax for Cc1ncsc1-c1ccc([C@H](C)NC(=O)[C@@H]2C[C@@H](O)CN2C(=O)[C@@H](NC(=O)N2CCC(CN3CCC(CNC(=O)c4nc(N5CCc6cccc(C(=O)Nc7nc8ccccc8s7)c6C5)ccc4-c4cnn(CC5CCCCC5)c4C)CC3)CC2)C(C)(C)C)cc1 .
A. 50 to 75%
